method summary: Cytotoxicity against human lymphocytes assessed as growth inhibition at 500 uM after 24 hrs by MTS method
Type: cell-based, Lymphocyte
condition label: human lymphocytes, read-out: GI
Recorded inhibition at 24 h, 500 µM for the following compounds
reported metric: inhibition at 24 h, 500 µM (%)

> print(dat)
                              record.smiles  unit.descriptor  value.measured
1  CCCCCCCCCCCCCCC[N+](C)(C)CCOP(=O)([O-])OCC                %              10
2  CCCCCCCCCCCCCC[N+](C)(C)CCOP(=O)([O-])OCCC                %              12

---

Recorded pIC50 for the following compounds
Tested on: MCF7
method summary: Cytotoxicity against human MCF7 cells after 24 hrs by MTT method
Format: functional, cell-based
condition label: MCF7, 24 h
pIC50: −log10 of the molar value.
reported metric: pIC50

> print(dat)
                               record.smiles  value.measured
 1  CCCCCCCCCCCCOP(=O)([O-])OCC[N+](C)(C)CCCCC            4.18
 2  CCCCCCCCCCCC[N+](C)(C)CCOP(=O)([O-])OCCCCC            4.59
 3  CCCCCCCCCCCCCCCOP(=O)([O-])OCC[N+](C)(C)CC            4.36
 4  CCCCCCCCCCCCCCC[N+](C)(C)CCOP(=O)([O-])OCC            4.84
 5  CCCCCCCCCCCCCC[N+](C)(C)CCOP(=O)([O-])OCCC            4.68
 6  CCCCCCCCCCC[N+](C)(C)CCOP(=O)([O-])OCCCCCC            4.19
 7  CCCCCCCCCCCCCCOP(=O)([O-])OCC[N+](C)(C)CCC            4.30
 8  CCCCCCCCCC[N+](C)(C)CCOP(=O)([O-])OCCCCCCC            4.58
 9  CCCCCCCCCOP(=O)([O-])OCC[N+](C)(C)CCCCCCCC            4.47
10  CCCCCCCCCCCCCCCCOP(=O)([O-])OCC[N+](C)(C)C            4.45
11  CCCCCCCCCCOP(=O)([O-])OCC[N+](C)(C)CCCCCCC            4.21
12  CCCCCCCCC[N+](C)(C)CCOP(=O)([O-])OCCCCCCCC            4.72
13  CCCCCCCCCCCOP(=O)([O-])OCC[N+](C)(C)CCCCCC            3.95
